Target: second (BD2: amino acids E352-E168) bromodomain of BRD4 (Homo sapiens)
Construct: protocol
Assay: TR-FRET bromodomain binding assay, BRD4 BD2
Details: TR-FRET assay protocol (A-G, compound concentration range); Ki calculated from IC50, probe Kd and probe concentration; read-out: TR-FRET Binding Ki: BRD4 (BDII_E352-M457)
measure: Ki
Remember to quote the unit after the number.

// worked examples, Ki included
{"molecule": "CN(C)CCNC(=O)c1cccc(-c2cc(=O)n(C)nc2-c2ccccc2Oc2ccccc2)c1 [Example 186]", "measure": "Ki", "endpoint value": "854 nM"}
{"molecule": "CC(=O)Nc1ccc(Oc2ccccc2)c(-c2ccc(=O)n(C)n2)c1 [Example 12]", "measure": "Ki", "endpoint value": "696 nM"}
{"molecule": "CC(=O)Nc1ccc(-c2cc(=O)n(C)nc2-c2ccccc2Oc2ccccc2)cc1 [Example 105]", "measure": "Ki", "endpoint value": "84.7 nM"}

Next molecule, please.
Query: Retrieve Ki measured for Cn1nc(-c2ccccc2Oc2ccccc2)c(-c2ccc(CC#N)cc2)cc1=O [Example 94] and print it.
Response: 154 nM

* * *

In this section we review reported Ki values for a set of molecules.
Target: first (BD1: amino acids K57-E168) bromodomain of BRD4 (Homo sapiens)
Construct: His-tagged first (BD1: amino acids K57-E168)
Assay: TR-FRET bromodomain binding assay, BRD4 BD1
Details: TR-FRET assay protocol (A-G, compound concentration range); Ki calculated from IC50, probe Kd and probe concentration; read-out: TR-FRET Binding Ki: BRD4 (BDI_K57-E168)
Express it in nM; write the number only.

// worked examples, Ki included
{"molecule": "Cn1nc(-c2ccccc2Oc2ccccc2)c(-c2ccc(CN3CCCC3)cc2)cc1=O [Example 71]", "Ki, nM": 62.2}
{"molecule": "COC(=O)c1ccc(-c2cc(=O)n(C)nc2-c2ccccc2Oc2ccccc2)cc1 [Example 102]", "Ki, nM": 2600}
{"molecule": "COc1ccccc1Oc1ccc(NS(C)(=O)=O)cc1-c1ccc(=O)n(C)c1 [Example 238]", "Ki, nM": 29.2}
{"molecule": "Cn1nc(-c2ccccc2Oc2ccccc2)c(C2=CCN(S(C)(=O)=O)CC2)cc1=O [Example 85]", "Ki, nM": 1610}

Query: Retrieve Ki measured for COc1ccc(-c2cc(=O)n(C)nc2-c2ccccc2Oc2ccccc2)cc1F [Example 203] and print it.
Response: 3510

Query: Retrieve Ki measured for CCS(=O)(=O)Nc1ccc(Oc2ccc(F)cc2F)c(-c2c[nH]c(=O)c(C)c2)c1 [Example 264] and print it.
Response: 33.5

Query: Retrieve Ki measured for CCS(=O)(=O)c1ccc(O[C@H]2CC[C@@](C)(OC)CC2)c(-c2ccc(=O)n(C)c2)c1 [Example 360] and print it.
Response: 127

Query: Retrieve Ki measured for CCS(=O)(=O)Nc1ccc(Oc2ccc(OC3COC3)cc2F)c(-c2cn(C)c(=O)cc2OC2COC2)c1 [Example 336] and print it.
Response: 21.4

Query: Retrieve Ki measured for CCS(=O)(=O)Nc1ccc(Oc2ccc(F)cc2F)c(-c2cn(C)c(=O)cc2OCC2(C)CC2(F)F)c1 (stereo not shown) [Example 335] and print it.
Response: 95.3

Query: Retrieve Ki measured for Cn1nc(-c2ccccc2Oc2ccccn2)ccc1=O [Example 6] and print it.
Response: 4080

Query: Retrieve Ki measured for CCOc1cc(=O)n(C)cc1-c1cc(S(=O)(=O)C2CC2)ccc1Oc1ccc(F)cc1F [Example 371] and print it.
Response: 8.73

Query: Retrieve Ki measured for CN1CCN(c2ccc(-c3cc(=O)n(C)nc3-c3ccccc3Oc3ccccc3)cc2)CC1 [Example 161] and print it.
Response: 26.3
